Tested on: M19-MEL
Assay: NCI tumour cell line growth inhibition, 48 h
Activity calls are given as the source filed them. Rule as the data show it: active = GI50 up to about 1.1 µM and inactive = higher.
ENDPOINT LABEL: GI50

Incoming: What does the record list as GI50 for COc1ccccc1Cc1nc(-c2ccccc2)nn(C2OC(COC(C)=O)C(OC(C)=O)C(OC(C)=O)C2OC(C)=O)c1=S (stereo not drawn) ?
Outgoing: 32.7 µM (inactive)

Incoming: For the compound COc1cc(NC(C)CCCN)c2ncccc2c1 (stereo not drawn) [PRIMAQUINE PHOSPHATE] , what GI50 is on record?
Outgoing: 47.5 µM (inactive)

Incoming: Returns the measured GI50 for the input compound. Input: Nc1nnc(N)n1N
Outgoing: > 100 µM (inactive)

Incoming: // query GI50 value for entry CCOC(=O)[C@H]1Nc2ccccc2C2c3ccccc3CC21 (stereo partly drawn)
Outgoing: 74.3 µM (inactive)

Incoming: What does the data say about its GI50? Entry: CCCCCCCCC(O)c1ccc(/C=C\C(O)CCCC(=O)O)s1 (stereo not drawn)
Outgoing: > 100 µM (inactive)

Incoming: Endpoint output: GI50 of Nc1ccc2ncc(Nc3ccc(Cl)c(Cl)c3)nc2c1 . Value?
Outgoing: 21.7 µM (inactive)

Incoming: // returns reported GI50 for input Cn1cnc([N+](=O)[O-])c1Sc1nnc(-c2cccnc2)n1C
Outgoing: 19.1 µM (inactive)

Incoming: Please report the recorded GI50 for CC1(c2ccccc2)CC(c2ccccc2)=NO1 (stereo not drawn) .
Outgoing: > 100 µM (inactive)

Entry source: ChEMBL document CHEMBL1201862
